Test system: HL-60
Assay: cell viability (% survival relative to DMSO control); higher = less cytotoxic
Conditions: 10 µM; 72 h; co-treatment: DMSO vehicle
property.label: cell viability (%)
Give just the number in %; leave the unit off.

Consider the worked cases shown below.
>>> df
                                   compound  unit_tag  numeric_readout
0  CCOc1ccc(Cc2cc([C@@H]3O[C@H](CO)[C@@H](O)[C@H](O)[C@H]3O)ccc2Cl)cc1 [Dapagliflozin]         %              103
1  Nc1ncnc2c1ncn2[C@@H]1O[C@H](CSCC[C@H](N)C(=O)O)[C@@H](O)[C@H]1O [S-Adenosyl Homocysteine]         %             99.4

# cell viability of CN(C)c1nc(O)c2[nH]cnc2n1 [2-Dimethylamino-6-hydroxypurine] = 102

# cell viability of CCN(CC)CCN(Cc1ccc(-c2ccc(C(F)(F)F)cc2)cc1)C(=O)Cn1c(SCc2ccc(F)cc2)nc(=O)c2c1CCC2 [Darapladib] = -2.41

Every entry's value here was drawn from the supplement of paper PMC8671470.
